Would you mind telling me the reported EC50 of each entry?
# TARGET_SYSTEM: human IL-12 receptor (IL-12Rβ1 and IL-12Rβ2) on HEK-Blue IL-12 cells (human, UniProt P42701 24-662; Q99665 24-862)
# Sequence (Q99665 24-862, chain 2 of 2, other chains not shown): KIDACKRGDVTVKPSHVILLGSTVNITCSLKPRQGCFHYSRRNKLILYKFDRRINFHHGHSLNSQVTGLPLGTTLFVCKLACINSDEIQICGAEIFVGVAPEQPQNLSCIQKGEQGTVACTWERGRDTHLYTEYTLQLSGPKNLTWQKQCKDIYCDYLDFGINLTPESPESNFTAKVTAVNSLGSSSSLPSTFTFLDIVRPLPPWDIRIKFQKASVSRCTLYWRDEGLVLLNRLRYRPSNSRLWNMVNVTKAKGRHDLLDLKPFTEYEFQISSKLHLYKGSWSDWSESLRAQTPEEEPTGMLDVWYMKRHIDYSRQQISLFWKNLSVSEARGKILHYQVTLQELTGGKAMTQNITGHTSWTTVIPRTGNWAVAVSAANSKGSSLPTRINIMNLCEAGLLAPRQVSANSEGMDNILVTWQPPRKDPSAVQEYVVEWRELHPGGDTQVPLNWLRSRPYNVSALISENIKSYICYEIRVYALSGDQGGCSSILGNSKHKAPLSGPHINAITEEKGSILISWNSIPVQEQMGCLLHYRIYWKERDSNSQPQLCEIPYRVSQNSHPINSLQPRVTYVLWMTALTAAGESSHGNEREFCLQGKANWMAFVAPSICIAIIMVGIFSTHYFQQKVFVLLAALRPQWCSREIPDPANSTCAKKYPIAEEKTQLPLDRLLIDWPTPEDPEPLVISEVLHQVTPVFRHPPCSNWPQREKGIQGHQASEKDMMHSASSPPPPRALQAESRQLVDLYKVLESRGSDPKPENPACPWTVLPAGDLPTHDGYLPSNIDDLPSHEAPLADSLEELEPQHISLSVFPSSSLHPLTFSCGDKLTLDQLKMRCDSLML
# PROTOCOL_SUMMARY: cell-based or functional assay

Per the record, DGL465 (bispecific antibody, V domains shown) V domain 1: QVQLVESGGGLVQAGGSLRLSCAASGRAFSRYSMGWFRQAPGKEREFVAANYWSNGWTDYADTVKGRFSISRDNAKNTVYLQMNSLKPEDTAVYYCAGRSSSIPSADVVGYDYWGQGTQVTVEP V domain 2: QVQLVESGGGLVQPGGSLRLSCAASGFTFEPYDMSWFRQAPGKGPEWVSAIDKGGGAGATYYADSVKGRFTISRDNAKKTLYLQMKSLKPEDTAVYYCAITAGPYSDSTPRVAYRGEGTQVTVEP has EC50 of > 100 nM

Noted for DGL481 (bispecific antibody, V domains shown, 67B1 x 19B2) V domain 1: QVQLVESGGGLVQAGGSLRLSCAASARIFNSYAVAWFRQTPGKEREFVASISWSGGSTNYADSVKGRFTISRDNAKNTVFLQMNSLKPADTAVYYCAADRNYYPSVLGKYTYWGQGTQVTVEP V domain 2: QVQLVESGGGLVQPGGSLRLSCAASGFTFSNYAMSWVRQAPGKGLEWVSAINSDGTSTSYADSVKGQFTISRDNAKNTLYLQMNSLKPEDTAVYYCTKWEGDTDSDYKFKDYWGQGTQVTVEP : its EC50 reads 3.3e-10 M (implied)

The reported value for DGL537 (bispecific antibody, V domains shown) V domain 1: QVQLVESGGGLVQAGGSLRLSCLASGRTSNYFMGWFRQAPGKEREFVAAISRSGGGTWYADSVKGRFAISRDNAKNTVNLQMNSLKREDTAVYYCAADRRTGTSVYTVDEYDYWGQGTQVTVEP V domain 2: QVQLVESGGGLVQAGGSLRLSCAASGRIFSAYRMGWFRQAPGKEREFVAGITWRGQTTYYAASVKGRFTISKDNAKKTVYLQMNSLKPEETAVYYCAVETNGLGRWDRPSEYDYWGQGTQVTVEP in terms of EC50 is 5.9e-10 M (implied)

Lab book: EC50 of DGL495 (bispecific antibody, V domains shown) V domain 1: EVQLVESGGGLVQAGGSLRLSCAASGLTFRNYAMAWFRQAPGKEREFVAGITWGGGLTHYVDSVKGRFTISRDNGKNTVYLQMNSLKSEDTAVYYCAGKTQGSTWYHLTPDGYDYWGQGTQVTVEP V domain 2: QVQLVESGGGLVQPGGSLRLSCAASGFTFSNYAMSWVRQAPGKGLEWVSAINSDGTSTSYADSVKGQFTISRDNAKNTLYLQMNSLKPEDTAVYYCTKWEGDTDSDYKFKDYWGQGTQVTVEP noted as 6.4e-10 M (implied)

Lab note: measured EC50 of DGL552 (bispecific antibody, V domains shown) V domain 1: QVQLVESGGGLVQAGGSLRLSCAASGRTFGTYAMGWFRQAPGKERDFVARISNSGAFTHYADSVKGRFTISRDNAKNTVYLHMNSLENGDTAAYYCVATRGTNSAYYTRSTMYEYWGQGTQVTVEP V domain 2: QVQLVESGGGLVQAGGSLRLSCAASGRIFSAYRMGWFRQAPGKEREFVAGITWRGQTTYYAASVKGRFTISKDNAKKTVYLQMNSLKPEETAVYYCAVETNGLGRWDRPSEYDYWGQGTQVTVEP was > 100 nM
